Hi there, I'd appreciate the recorded pKi for every entry that follows.
# measurement target: Cannabinoid receptor 1 (Homo sapiens, UniProt P21554)
# Sequence (P21554 whole entry): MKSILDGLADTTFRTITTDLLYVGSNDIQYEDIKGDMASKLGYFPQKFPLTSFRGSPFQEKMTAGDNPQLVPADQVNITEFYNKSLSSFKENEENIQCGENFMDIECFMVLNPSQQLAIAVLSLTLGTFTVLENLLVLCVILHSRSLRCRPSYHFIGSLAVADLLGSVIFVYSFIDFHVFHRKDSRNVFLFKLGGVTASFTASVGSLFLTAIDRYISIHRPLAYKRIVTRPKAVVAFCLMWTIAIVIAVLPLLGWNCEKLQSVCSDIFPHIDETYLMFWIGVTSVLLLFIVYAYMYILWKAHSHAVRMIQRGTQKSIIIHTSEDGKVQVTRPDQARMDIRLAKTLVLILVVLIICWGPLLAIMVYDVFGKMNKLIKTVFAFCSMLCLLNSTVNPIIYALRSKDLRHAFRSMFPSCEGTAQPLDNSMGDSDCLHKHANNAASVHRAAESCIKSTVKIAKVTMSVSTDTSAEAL
# experimental protocol: Displacement of [3H]CP-55,940 from human recombinant CB1 receptor expressed in HEK293 cell membranes
Scale: negative log10 of molar concentration, which is what pKi denotes.

Item under review: CCCCCCC(C)(C)c1cc(O)cc(OCCCCCCCCCCC(=O)N[C@H](C)CO)c1 . Reported pKi?
6.88

Then C=CCNCCCCCCCCCCCOc1cc(O)cc(CCCCC)c1 ?
5.94

Then CCCCCCC(C)(C)c1cc(O)cc(OCCCCCCCCCCC(=O)NC(CO)CO)c1 ?
5.72

Then CCCCCc1cc(O)cc(OCCCCCCCCCCCNCc2ccccc2)c1 ?
5.91

Then CCCCCCC(C)(C)c1cc(O)cc(OCCCCCCCC(=O)NC(CO)CO)c1 ?
6.75

Then CCCCCc1cc(O)cc(OCCCCCCCC(=O)N[C@H](C)CO)c1 ?
7.89

Then CCCCCc1cc(O)cc(OCCCCCCCCCCCCNC2CC2)c1 ?
6.08

Then CCCCCCC(C)(C)c1cc(O)cc(OCCCCCCCCCCCNC(=O)C2CC2)c1 ?
5.68

Then CCCCCc1cc(O)cc(OCCCCCCCCCN[C@H](C)CO)c1 ?
5.97

Then C=CCNC(=O)CCCCCCCCCCOc1cc(O)cc(CCCCC)c1 ?
6.87

Then CCCCCc1cc(O)cc(OCCCCCCCCCCC(=O)NCC(F)(F)F)c1 ?
6.36

Then CCCCCc1cc(O)cc(OCCCCCCCCCCC(=O)N[C@H](C)CO)c1 ?
6.58

----------
# Organism: Homo sapiens
# experimental protocol: Selectivity index, ratio of Ki for human recombinant CB1 receptor to Ki for human recombinant CB2 receptor
# cutoff 5 applies to Ratio Ki; >= gives criterion met, < gives criterion not met

In plain terms: is recorded Ratio Ki at least 5 for CCCCCc1cc(O)cc(OCCCCCCCCCCC(=O)NN(C)C)c1 ?
criterion not met

Then CCCCCCC(C)(C)c1cc(O)cc(OCCCCCCCC(=O)N[C@H](C)CO)c1 ?
criterion not met

Then CCCCCc1cc(O)cc(OCCCCCCCCCCCNC(=O)C2CC2)c1 ?
criterion met

Then CCCCCc1cc(O)cc(OCCCCCCCCCCC(=O)NCc2ccccc2)c1 ?
criterion met

Then CCCCCCc1ccc(O)cc1OCCCCCCCCCCCNC(=O)C1CC1 ?
criterion not met

Then CCCCCc1cc(O)cc(OCCCCCCCCCCC(=O)NN2CCCCC2)c1 ?
criterion not met

Then CCCCCCC(C)(C)c1cc(O)cc(OCCCCCCCCCCC(=O)N[C@H](C)CO)c1 ?
criterion met

Then CCCCCCC(C)(C)c1cc(O)cc(OCCCCCCCC(=O)NC(CO)CO)c1 ?
criterion not met

----------
# Organism: Homo sapiens
# experimental protocol: Selectivity index, ratio of Ki for human recombinant CB2 receptor to Ki for human recombinant CB1 receptor
measured endpoint: Ratio Ki

Item under review: CCCCCc1cc(O)cc(OCCCCCCCCCCC(=O)NC(CO)CO)c1 . Reported Ratio Ki?
< 0.05

Then CCCCCCc1ccc(O)cc1OCCCCCCCCCCC(=O)NC(CO)CO ?
< 0.24

Then CCCCCc1cc(O)cc(OCCCCCCCCCCC(=O)Nc2ccccc2)c1 ?
< 0.01

Then CCCCCc1cc(O)cc(OCCCCCCCCCCCCNC2CC2)c1 ?
> 12.1

Then CCCCCc1cc(O)cc(OCCCCCCCCCCC(=O)NCc2ccccc2)c1 ?
< 0.02
